So I've got a bunch of molecules here, and I need their inhibition at 10 µM values.
# Tested on: 786-0
# Assay Comment: NCI one-dose assay
# Type: cell-based, human
# Reported Conditions: Homo sapiens, 786-0, 786-0, Renal cancer, read-out: Cell growth inhibition %
One number for each entry, in %.

Some entries whose results are on file:
{"Input Smiles": "C=CCn1c(SCC(=O)c2ccc(Br)cc2)nnc1-c1c[nH]c2ccccc12", "Readout Number": 1.44}
{"Input Smiles": "C=CCn1c(SCC(=O)c2ccccc2)nnc1-c1c[nH]c2ccccc12", "Readout Number": -1.07}

Field: next molecule
inhibition at 10 µM reported for this molecule O=C(CSc1nnc(-c2c[nH]c3ccccc23)n1-c1ccccc1)c1ccccc1 : 70.4
